Listed compounds paired with reported TGI
system: MCF7 breast; assay: NCI tumour cell line growth inhibition, 48 h
All answers are understood in µM, so give the number only.

Illustrative cases are given below, each with its answer.
Molecular string	Study system	Experimental readout	Readout unit	Experimental result
C[n+]1c(/C=C\C=C\N2CCCCC2)sc2ccccc21	MCF7 breast	TGI	µM	11.8
Cn1cc(-c2nonc2-c2c[nH]c3ccccc23)c2ccccc21	MCF7 breast	TGI	µM	15.3

Then there is this compound:
Entry `COc1ccc2c(c1)C(=O)c1c-2n(CCCN)c(=O)c2ccccc12` : reported TGI = ?
1.07

----------
tested on: T-47D breast; experiment: NCI tumour cell line growth inhibition, 48 h
Experimental readout: GI50

Illustrative cases are given below, each with its answer.
Compound	GI50
C=C(CNC(=O)Nc1ccc(-c2ccccc2)cc1)c1ccc(C(=O)Nc2ccccc2N)cc1	> 100 µM
CO[C@H](C(=O)[C@@H](O)[C@@H](C)O)[C@@H]1Cc2cc3cc(O[C@H]4C[C@@H](O[C@H]5C[C@@H](O)[C@H](O)C(C)O5)[C@H](O)C(C)O4)c(C)c(O)c3c(O)c2C(=O)[C@H]1O[C@H]1C[C@@H](O[C@H]2C[C@@H](O[C@H]3C[C@@H](OC)[C@H](O)C(C)O3)[C@@H](O)C(C)O2)C(O)(O)C(C)O1 (stereo not given in full)	0.0543 µM
Cc1ccccc1NC(=S)Nc1ccccn1	55.7 µM
COc1cccc(C2CC(c3cc(OC)c(OC)c(OC)c3)=NN2)c1 (stereo not given)	20.2 µM

Entry `CN1CCN(c2ccc(C(=O)Nc3n[nH]c4ccc(Cc5cc(F)cc(F)c5)cc34)c(NC3CCOCC3)c2)CC1` : reported GI50 = ?
1.99 µM
